# study_target: Hexose transporter 1 (Plasmodium falciparum) (UniProt O97467)
# assay_info: ST_JUDE_LEISH: Cytotoxicity at 2uM final concentration against transgenic Leishmania Mexicana promastigotes LmPfHT that are glucose transport deficient and complemented with the Plasmodium falciparum hexose transporter. Activity is measured by DNA content using SYBR green in vitro
# Assay type: functional
The following compounds are shown together with reported inhibition values.
endpoint_label: inhibition (%)

[
  {
    "compound": "COc1cc2c(cc1C(F)(F)F)N(C(=O)Nc1cc(-c3ccncc3)cc(-c3cccnc3)c1)CC2",
    "measurement_units": "%",
    "assay_result": -0.38
  },
  {
    "compound": "COc1cc(CCNc2nc(NCc3ccccc3-c3ccccc3)nc(N3CCC(N)CC3)n2)ccc1O",
    "measurement_units": "%",
    "assay_result": 0.92
  },
  {
    "compound": "c1ccc(-c2cc(NCCNc3cc(-c4ccccc4)nc4ccccc34)c3ccccc3n2)cc1",
    "measurement_units": "%",
    "assay_result": 6.2
  },
  {
    "compound": "Cc1cc(N2CCCC2)nc(Nc2ccc(NC(=O)c3ccccc3F)cc2)n1",
    "measurement_units": "%",
    "assay_result": 2.77
  },
  {
    "compound": "N#Cc1cccc(C(=O)Nc2cccc(-c3ccc(C(=O)Nc4cccnc4)cc3)c2)c1",
    "measurement_units": "%",
    "assay_result": 2.59
  },
  {
    "compound": "CCOC(=O)CN1Cc2cc(NCc3ccc4ccc5nc(C)[nH]c(=O)c5c4c3)ccc2C1=O",
    "measurement_units": "%",
    "assay_result": 1.98
  },
  {
    "compound": "CCCCCCOc1ccc(C(=O)NCCCC2CCN(CCCCCNC(=O)C=Cc3ccc(Cl)c(Cl)c3)CC2)cc1",
    "measurement_units": "%",
    "assay_result": 4.46
  },
  {
    "compound": "O=C(NCc1ccc(Cl)c(Cl)c1)c1cc(CNC2CCNCC2)ccc1O",
    "measurement_units": "%",
    "assay_result": 5.71
  },
  {
    "compound": "O=C(C1CC1)N1c2ccccc2CCc2ccccc21",
    "measurement_units": "%",
    "assay_result": -0.1
  },
  {
    "compound": "COc1ccc2c(=NN=Cc3cccnc3)cc(C)[nH]c2c1",
    "measurement_units": "%",
    "assay_result": 0.44
  },
  {
    "compound": "C=CCc1ccccc1OCC(O)CN(C1CCCCC1)C1CCCCC1 (stereo not given)",
    "measurement_units": "%",
    "assay_result": -2.31
  },
  {
    "compound": "COc1ccc(Nc2nccc(N3CCC(NC(=O)Nc4cccc(C(C)=O)c4)C3)n2)cc1 (stereo not given)",
    "measurement_units": "%",
    "assay_result": 0.98
  },
  {
    "compound": "N#Cc1ccc(CN2CCCN(Cc3cccc(NC(=O)c4ccc(-c5ccccc5)cc4)c3)CC2)cc1",
    "measurement_units": "%",
    "assay_result": 9.67
  },
  {
    "compound": "CC(C)Nc1ccc(Nc2ccnc3cc4ccccc4cc23)cc1",
    "measurement_units": "%",
    "assay_result": 4.38
  },
  {
    "compound": "Cc1[nH]c2ccc(O)cc2c1C1CCN(CCCCCNC(=O)/C=C/c2ccc(Cl)c(Cl)c2)CC1",
    "measurement_units": "%",
    "assay_result": 0.7
  },
  {
    "compound": "CCNC[C@@H](O)[C@H](Cc1ccccc1)NC(=O)c1cc2c3c(c1)c(CC)cn3CCS(=O)(=O)N2C",
    "measurement_units": "%",
    "assay_result": 0.11
  },
  {
    "compound": "CCN1CCN(c2cc(C)c3cc(NC(=O)c4cccc(C(F)(F)F)c4)ccc3n2)CC1",
    "measurement_units": "%",
    "assay_result": 3.29
  },
  {
    "compound": "O=[N+]([O-])c1nc(Br)n(Cc2ccc(Cl)cc2)n1",
    "measurement_units": "%",
    "assay_result": 3.81
  },
  {
    "compound": "COc1cccc2c(NCc3ccccc3)nc(NCCCN3CCCCC3C)nc12 (stereo not given)",
    "measurement_units": "%",
    "assay_result": 50.8
  },
  {
    "compound": "Cc1ccccc1Oc1nc2ccccc2nc1SCC(=O)NC(C)C",
    "measurement_units": "%",
    "assay_result": 2.25
  }
]
